Provide the reported IC50 of each item.
- System: ENPP-1 (Homo sapiens)
- Construct: purchased Biovendor RD172124100
- Sequence (P22413 1-925): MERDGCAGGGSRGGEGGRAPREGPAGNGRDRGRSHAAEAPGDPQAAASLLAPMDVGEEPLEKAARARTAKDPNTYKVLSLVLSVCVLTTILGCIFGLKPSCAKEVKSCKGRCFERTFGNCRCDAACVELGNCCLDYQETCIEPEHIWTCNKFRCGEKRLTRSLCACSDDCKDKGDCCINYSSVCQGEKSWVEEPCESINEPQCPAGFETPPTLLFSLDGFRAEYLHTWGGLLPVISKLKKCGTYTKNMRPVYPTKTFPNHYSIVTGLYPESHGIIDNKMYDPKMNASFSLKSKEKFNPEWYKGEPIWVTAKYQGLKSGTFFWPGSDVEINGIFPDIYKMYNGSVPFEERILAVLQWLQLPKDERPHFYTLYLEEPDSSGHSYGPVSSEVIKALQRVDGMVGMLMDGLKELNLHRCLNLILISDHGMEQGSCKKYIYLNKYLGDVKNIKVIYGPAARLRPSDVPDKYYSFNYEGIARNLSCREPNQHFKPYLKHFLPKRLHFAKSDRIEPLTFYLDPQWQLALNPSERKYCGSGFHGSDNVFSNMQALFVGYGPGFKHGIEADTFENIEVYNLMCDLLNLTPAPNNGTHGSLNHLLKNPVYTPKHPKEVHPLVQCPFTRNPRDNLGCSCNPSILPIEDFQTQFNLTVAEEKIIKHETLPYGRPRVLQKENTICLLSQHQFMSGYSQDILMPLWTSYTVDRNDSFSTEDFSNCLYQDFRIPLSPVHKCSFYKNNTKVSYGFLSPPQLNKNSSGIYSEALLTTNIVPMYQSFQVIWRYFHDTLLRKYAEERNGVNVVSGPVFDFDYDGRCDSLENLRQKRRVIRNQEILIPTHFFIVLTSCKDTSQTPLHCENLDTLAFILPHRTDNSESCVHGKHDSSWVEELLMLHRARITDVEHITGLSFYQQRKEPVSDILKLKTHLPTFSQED
- Assay summary: ENPP-1 enzyme assay with cGAMP substrate
- Type: biochemical
- Measurement conditions: 200 pM ENPP-1, 10 μM substrate 2′3′-cGAMP, pH 7.4, 37° C., 30 minutes, Transcreener AMP2/GMP2 kit; average IC50

IC50 reported for this molecule COc1cc2c3ncccc3n(Cc3ccc(S(C)(=N)=O)cc3)c2cc1F (single isomer, unassigned) [Compound 30a] : < 1000 nM

Sample `COc1ccc2c(c1)c1c(n2Cc2ccc(S(N)(=O)=O)cc2)CCNC1` ; IC50 observed: > 10000 nM

What the record says about COc1cc2c(cc1F)c1ncccc1n2Cc1ccc(S(C)(=N)=O)cc1 (centres unmarked) : IC50 is < 1000 nM

// sample `COc1ccc2c3c(=O)[nH]ccc3n(Cc3ccc(S(N)(=O)=O)cc3)c2c1` , its IC50 was 1000 to 10000 nM

Looking up `COc1ccc2c(c1)c1ccncc1n2Cc1ccc(S(N)(=O)=O)cc1` , I see its IC50 listed as < 1000 nM

So, `CNS(=O)(=O)c1ccc(Cn2c3ccc(OC)cc3c3ncccc32)cc1` ? Its IC50 was > 10000 nM

Input COc1cc2c3ncccc3n(Cc3ccc(S(=N)(=O)C4CC4)cc3)c2cc1F (single isomer, unassigned) [Compound 56b] . Output IC50: < 1000 nM

# molecule COc1cc2c3ncccc3n(Cc3ccc(S(C)(=N)=O)cc3F)c2cc1F (centres unmarked) ; its IC50 = < 1000 nM

Origin of the recorded values: patent US20250367173A1
